This collection of values is drawn from patent US20250170248A1.

# tested_system: SMARCA2 (Homo sapiens, UniProt P51531)
# Sequence (P51531 whole entry): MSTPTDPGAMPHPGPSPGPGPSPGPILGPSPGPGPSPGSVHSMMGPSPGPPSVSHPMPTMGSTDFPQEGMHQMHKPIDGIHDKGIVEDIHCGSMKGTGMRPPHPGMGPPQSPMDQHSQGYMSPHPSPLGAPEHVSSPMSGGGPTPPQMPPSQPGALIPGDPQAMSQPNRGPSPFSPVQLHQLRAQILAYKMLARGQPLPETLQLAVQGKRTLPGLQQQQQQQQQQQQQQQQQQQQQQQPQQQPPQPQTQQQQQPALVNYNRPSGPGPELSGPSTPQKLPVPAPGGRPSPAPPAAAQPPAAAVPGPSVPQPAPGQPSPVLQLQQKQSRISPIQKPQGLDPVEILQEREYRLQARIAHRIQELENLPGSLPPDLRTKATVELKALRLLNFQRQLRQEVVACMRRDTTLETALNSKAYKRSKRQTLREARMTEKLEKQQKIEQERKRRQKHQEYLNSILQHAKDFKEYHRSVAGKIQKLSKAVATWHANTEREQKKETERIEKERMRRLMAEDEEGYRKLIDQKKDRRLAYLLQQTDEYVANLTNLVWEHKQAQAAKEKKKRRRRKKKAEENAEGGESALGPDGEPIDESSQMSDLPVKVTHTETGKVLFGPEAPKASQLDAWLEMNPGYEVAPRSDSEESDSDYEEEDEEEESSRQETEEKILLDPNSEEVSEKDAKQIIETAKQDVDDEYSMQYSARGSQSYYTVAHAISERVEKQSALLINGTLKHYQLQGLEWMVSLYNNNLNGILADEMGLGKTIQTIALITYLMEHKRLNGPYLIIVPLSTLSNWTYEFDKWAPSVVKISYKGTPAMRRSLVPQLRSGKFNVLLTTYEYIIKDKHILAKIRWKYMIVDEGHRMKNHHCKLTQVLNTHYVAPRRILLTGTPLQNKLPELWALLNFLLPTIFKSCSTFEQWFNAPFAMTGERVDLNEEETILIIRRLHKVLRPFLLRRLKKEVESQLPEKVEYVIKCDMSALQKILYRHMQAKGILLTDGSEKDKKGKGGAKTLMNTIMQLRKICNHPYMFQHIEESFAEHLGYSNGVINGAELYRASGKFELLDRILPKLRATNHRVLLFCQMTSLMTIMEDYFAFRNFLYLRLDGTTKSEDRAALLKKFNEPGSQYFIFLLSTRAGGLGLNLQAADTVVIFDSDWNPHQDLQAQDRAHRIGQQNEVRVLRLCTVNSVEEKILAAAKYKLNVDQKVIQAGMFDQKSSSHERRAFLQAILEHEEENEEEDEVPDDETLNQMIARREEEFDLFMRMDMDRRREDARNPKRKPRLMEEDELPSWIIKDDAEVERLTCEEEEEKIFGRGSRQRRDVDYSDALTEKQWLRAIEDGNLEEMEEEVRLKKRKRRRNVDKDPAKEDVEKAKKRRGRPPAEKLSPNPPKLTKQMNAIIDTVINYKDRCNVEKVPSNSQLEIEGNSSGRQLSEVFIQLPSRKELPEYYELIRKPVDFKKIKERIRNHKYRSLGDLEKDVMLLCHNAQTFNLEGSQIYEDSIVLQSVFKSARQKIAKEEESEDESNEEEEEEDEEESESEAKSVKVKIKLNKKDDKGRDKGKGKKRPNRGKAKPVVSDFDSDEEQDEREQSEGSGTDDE
# experimental_protocol: MSD SMARCA2 degradation in A549 cell line
# Format: cell-based
# condition: A549, A549 cells, 24 h
Below, each entry is listed alongside its reported Dmax.

compound	val
C#Cc1ccc(CNC(=O)[C@@H]2C[C@@H](O)CN2C(=O)[C@@H](NC(=O)N2CCN(CC3CCN(c4cnc(N5CCc6[nH]c7nnc(-c8ccccc8O)cc7c6[C@H]5C)nc4)CC3)CC2)C(C)(C)C)cc1 [I-159]	> 90%

Entry C#Cc1ccc(CNC(=O)[C@@H]2C[C@@H](O)CN2C(=O)[C@@H](NC(=O)N2CC3(CC(N4CCC(c5cnc(N6CCc7[nH]c8nnc(-c9ccccc9O)cc8c7[C@H]6C)nc5)CC4)C3)C2)C(C)(C)CCN2CCNCC2)cc1 [I-340] , Dmax reported as 50 to 70%

====

Below, each entry is listed alongside its reported DC50.
# tested_system: SMARCA4 (Homo sapiens)
# Construct: SMARCA2/SMARCA4 protein degradation selectivity in MV4-11 cells; endogenous in cells; host or cells: MV4-11
# Sequence (P51532 whole entry): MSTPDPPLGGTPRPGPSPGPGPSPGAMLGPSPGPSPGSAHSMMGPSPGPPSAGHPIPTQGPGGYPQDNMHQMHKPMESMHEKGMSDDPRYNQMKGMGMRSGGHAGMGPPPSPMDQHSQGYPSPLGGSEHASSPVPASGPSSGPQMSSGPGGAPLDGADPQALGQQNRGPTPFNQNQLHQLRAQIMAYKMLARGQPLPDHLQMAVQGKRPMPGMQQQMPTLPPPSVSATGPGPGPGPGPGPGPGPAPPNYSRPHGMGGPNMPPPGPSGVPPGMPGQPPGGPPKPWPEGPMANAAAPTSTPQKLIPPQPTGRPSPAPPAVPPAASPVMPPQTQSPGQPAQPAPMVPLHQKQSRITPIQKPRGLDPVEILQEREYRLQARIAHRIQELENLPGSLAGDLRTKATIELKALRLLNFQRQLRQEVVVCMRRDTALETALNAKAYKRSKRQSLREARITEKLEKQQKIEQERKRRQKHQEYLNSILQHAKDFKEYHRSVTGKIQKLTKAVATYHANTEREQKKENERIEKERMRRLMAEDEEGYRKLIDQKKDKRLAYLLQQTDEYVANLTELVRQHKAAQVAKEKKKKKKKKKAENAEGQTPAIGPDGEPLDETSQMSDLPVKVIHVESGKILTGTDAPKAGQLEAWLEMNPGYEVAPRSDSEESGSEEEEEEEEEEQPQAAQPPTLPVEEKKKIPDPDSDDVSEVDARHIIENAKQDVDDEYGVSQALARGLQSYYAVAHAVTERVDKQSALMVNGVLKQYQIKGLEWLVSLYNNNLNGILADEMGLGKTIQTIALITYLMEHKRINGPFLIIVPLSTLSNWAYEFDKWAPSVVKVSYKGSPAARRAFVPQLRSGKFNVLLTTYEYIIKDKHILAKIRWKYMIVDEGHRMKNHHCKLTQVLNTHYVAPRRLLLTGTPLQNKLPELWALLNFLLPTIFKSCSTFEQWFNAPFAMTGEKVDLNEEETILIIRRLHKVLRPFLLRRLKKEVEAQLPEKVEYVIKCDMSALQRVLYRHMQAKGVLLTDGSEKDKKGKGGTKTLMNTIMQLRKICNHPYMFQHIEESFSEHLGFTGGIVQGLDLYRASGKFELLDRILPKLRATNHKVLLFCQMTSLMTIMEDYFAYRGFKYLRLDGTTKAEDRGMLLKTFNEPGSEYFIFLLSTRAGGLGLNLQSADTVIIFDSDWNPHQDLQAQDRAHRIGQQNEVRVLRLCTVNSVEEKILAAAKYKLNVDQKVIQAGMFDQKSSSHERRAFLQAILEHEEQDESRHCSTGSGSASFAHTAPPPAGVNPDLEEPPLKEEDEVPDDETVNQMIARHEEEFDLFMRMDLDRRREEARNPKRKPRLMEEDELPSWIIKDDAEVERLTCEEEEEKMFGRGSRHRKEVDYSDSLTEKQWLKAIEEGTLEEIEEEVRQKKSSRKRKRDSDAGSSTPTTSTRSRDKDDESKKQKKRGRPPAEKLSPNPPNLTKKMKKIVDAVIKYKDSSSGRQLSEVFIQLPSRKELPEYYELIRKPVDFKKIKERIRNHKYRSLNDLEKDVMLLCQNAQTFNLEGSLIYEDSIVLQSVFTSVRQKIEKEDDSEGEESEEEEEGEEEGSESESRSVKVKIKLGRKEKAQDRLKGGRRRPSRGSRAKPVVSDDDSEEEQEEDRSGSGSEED
# experimental_protocol: SMARCA4 Western blot degradation in MV4-11 cells
# Type: cell-based
# condition: MV4-11 cells, 24 h; read-out: SMARCA4 MSD MV411 degradation 24 h: Mean external-Abs DC50

molecule	measured_quantity	val
C[C@H](NC(=O)[C@@H]1C[C@@H](O)CN1C(=O)[C@@H](NC(=O)[C@H]1CCC2(CC1)C[C@H](N1CCC(c3cnc(N4CCN5c6cc(-c7ccccc7O)nnc6NC[C@H]5C4)nc3)CC1)C2)C(C)(C)C)c1ccc(-c2ccnn2C)cc1 (single isomer, unassigned) [I-22]	DC50	10 to 100 nM
C#Cc1ccc(CNC(=O)[C@@H]2C[C@@H](O)CN2C(=O)[C@@H](NC(=O)C2CCC3(CC2)CC(N2CCC(N4CCC[C@H](C(=O)N5CCN6c7cc(-c8ccccc8O)nnc7NC[C@H]6C5)C4)CC2)C3)C(C)(C)C)cc1 (single isomer, unassigned) [I-90]	DC50	> 100 nM
C#Cc1ccc(CNC(=O)[C@@H]2C[C@@H](O)CN2C(=O)[C@@H](NC(=O)[C@H]2CCC3(CC2)C[C@H](N2CCC(c4ccc(N5CCN6c7cc(-c8ccccc8O)nnc7NC[C@H]6C5)nc4)CC2)C3)C(C)(C)C)cc1 (single isomer, unassigned) [I-156]	DC50	10 to 100 nM

Okay, next one:
Entry C#Cc1ccc(CNC(=O)[C@@H]2C[C@@H](O)CN2C(=O)[C@@H](NC(=O)N2CC3(CC(N4CCC(c5cnc(N6CCc7[nH]c8nnc(-c9ccccc9O)cc8c7[C@H]6C)nc5)CC4)C3)C2)C(C)(C)C)c(OCCCN(C)C)c1 [I-127] , DC50 reported as > 100 nM

====

# tested_system: UniProt P51531
# experimental_protocol: SMARCA2 Western blot degradation in MV4-11 cells
# Type: cell-based
# Set-up: SMARCA2/SMARCA4 protein degradation selectivity in MV4-11 cells; endogenous in cells; host or cells: MV4-11
# condition: MV4-11 cells, 24 h; read-out: SMARCA2 MSD MV411 degradation 24 h: Mean external-Abs DC50
measured_quantity: DC50

Entry C#Cc1ccc(CNC(=O)[C@@H]2C[C@@H](O)CN2C(=O)[C@@H](NC(=O)[C@H]2CCC3(CC2)C[C@H](N2CCC(c4cnc(N5CCN6c7cc(-c8cccc(F)c8O)nnc7NC[C@H]6C5)nc4)CC2)C3)C(C)(C)C)cc1 (single isomer, unassigned) [I-157] , DC50 reported as 1 to 10 nM

Entry CC#Cc1ccc(CNC(=O)[C@@H]2C[C@@H](O)CN2C(=O)[C@@H](NC(=O)[C@H]2CCC3(CC2)C[C@H](N2CCC(c4cnc(N5CCN6c7cc(-c8ccccc8O)nnc7NC[C@H]6C5)nc4)CC2)C3)C(C)(C)C)cc1 (single isomer, unassigned) [I-117] , DC50 reported as 10 to 100 nM

Entry Cc1ncsc1-c1ccc(CNC(=O)[C@@H]2C[C@@H](O)CN2C(=O)[C@@H](NC(=O)[C@H]2CCC3(CC2)C[C@H](N2CCN(c4cnc(N5CCc6[nH]c7nnc(-c8ccccc8O)cc7c6[C@H]5C)nc4)CC2)C3)C(C)(C)C)cc1 (single isomer, unassigned) [I-118] , DC50 reported as 10 to 100 nM

Entry C#Cc1ccc([C@H](C)NC(=O)[C@@H]2C[C@@H](O)CN2C(=O)[C@@H](NC(=O)[C@H]2CCC3(CC2)C[C@H](N2CCN(c4cnc(N5CCN6c7cc(-c8ccccc8O)nnc7NC[C@H]6C5)nc4)CC2)C3)C(C)(C)C)cc1 (single isomer, unassigned) [I-234] , DC50 reported as 10 to 100 nM

Entry C#Cc1ccc(CNC(=O)[C@@H]2C[C@@H](O)CN2C(=O)[C@@H](NC(=O)N2CCC(C(=O)N3CCC(N4CCC(N5CCc6[nH]c7nnc(-c8ccccc8O)cc7c6[C@H]5C)CC4)CC3)CC2)C(C)(C)C)cc1 [I-192] , DC50 reported as > 100 nM

Entry Cc1ncsc1-c1ccc(CNC(=O)[C@@H]2C[C@@H](O)CN2C(=O)C(c2cc(OC[C@H]3CC[C@@H](N4CCC(c5cnc(N6CCc7[nH]c8nnc(-c9ccccc9O)cc8c7[C@@H]6C)nc5)CC4)CC3)no2)C(C)C)cc1 (single isomer, unassigned) [I-16] , DC50 reported as 1 to 10 nM

Entry C#Cc1ccc([C@H](C)NC(=O)[C@@H]2C[C@@H](O)CN2C(=O)[C@@H](NC(=O)[C@H]2CC3(C2)C[C@H](N2CCC(N4CCC(N5CCN6c7cc(-c8ccccc8O)nnc7NC[C@H]6C5)CC4)CC2)C3)C(C)(C)C)cc1 (single isomer, unassigned) [I-213] , DC50 reported as 1 to 10 nM

Entry C#Cc1ccc(CNC(=O)[C@@H]2C[C@@H](O)CN2C(=O)[C@@H](NC(=O)N2CC3(CC(N4CCN([C@H]5CC[C@@H](N6CCc7[nH]c8nnc(-c9ccccc9O)cc8c7[C@H]6C)CC5)CC4)C3)C2)C(C)(C)C)cc1 [I-187] , DC50 reported as 1 to 10 nM

====

# tested_system: SMARCA2 (Homo sapiens)
# experimental_protocol: SMARCA2 Western blot degradation in MV4-11 cells
# Type: cell-based
# Set-up: SMARCA2/SMARCA4 protein degradation selectivity in MV4-11 cells; endogenous in cells; host or cells: MV4-11
# condition: MV4-11, MV4-11 cells, 24 h; read-out: SMARCA2 MSD MV411 degradation 24 h: average Dmax %
measured_quantity: Dmax

compound	tested_system	val
C#Cc1ccc(CNC(=O)[C@@H]2C[C@@H](O)CN2C(=O)C(c2cc(OCCN3CCC(N4CCC(N5CCC(CN6CCN7c8cc(-c9ccccc9O)nnc8NC[C@H]7C6)CC5)CC4)CC3)no2)C(C)C)c(F)c1 (stereo partly shown)	SMARCA2 (Homo sapiens)	> 90%

Tested on SMARCA2 (Homo sapiens): C#Cc1ccc(CNC(=O)[C@@H]2C[C@@H](O)CN2C(=O)[C@@H](NC(=O)[C@H]2CCC3(CC2)C[C@H](N2CCC(c4cnc(N5CCN6c7cc(-c8ccccc8O)nnc7NC[C@H]6C5)nc4)CC2)C3)C(C)(C)C)c(OCCCN(C)C)c1 (single isomer, unassigned) . Observed Dmax: > 90%

Tested on SMARCA2 (Homo sapiens): `C#Cc1ccc(CNC(=O)[C@@H]2C[C@@H](O)CN2C(=O)[C@@H](NC(=O)N2CCN(Cc3ccc(-c4cnc(N5CCN6c7cc(-c8ccccc8O)nnc7NC[C@H]6C5)nc4)cc3)CC2)C(C)(C)C)cc1` . Observed Dmax: 70 to 90%

Tested on SMARCA2 (Homo sapiens): Cc1ncsc1-c1ccc(CNC(=O)[C@@H]2C[C@@H](O)CN2C(=O)[C@@H](NC(=O)C2(F)CC2)C(C)(C)C)c(OC2CCN(Cc3cnc(N4CCc5[nH]c6nnc(-c7ccccc7O)cc6c5[C@@H]4C)nc3)CC2)c1 (single isomer, unassigned) . Observed Dmax: < 50%

====

# tested_system: SMARCA2 (Homo sapiens, UniProt P51531)
# experimental_protocol: SMARCA2 Western blot degradation in MV4-11 cells
# Assay type: cell-based
# Set-up: SMARCA2/SMARCA4 protein degradation selectivity in MV4-11 cells; endogenous in cells; host or cells: MV4-11
# condition: SMARCA2/4 selectivity, MV4-11 cells
measured_quantity: Selectivity in MV411

compound	tested_system	measured_quantity	val
C#Cc1ccc(CNC(=O)[C@@H]2C[C@@H](O)CN2C(=O)[C@@H](NC(=O)CCCCCN2CCC(N3CC4(CC(N5CCN6c7cc(-c8ccccc8O)nnc7NC[C@H]6C5)C4)C3)CC2)C(C)(C)C)cc1 [I-251]	SMARCA2 (Homo sapiens, UniProt P51531)	Selectivity in MV411	B (B (>100-500 fold))
C#Cc1ccc(CNC(=O)[C@@H]2C[C@@H](O)CN2C(=O)[C@@H](NC(=O)N2CCN(CC3CCN(c4cnc(N5CCN6c7cc(-c8ccccc8O)nnc7NC[C@H]6C5)nc4)CC3)CC2)C(C)(C)C)cc1 [I-163]	SMARCA2 (Homo sapiens, UniProt P51531)	Selectivity in MV411	B (B (>100-500 fold))
C#Cc1ccc([C@H](CCO)NC(=O)[C@@H]2C[C@@H](O)CN2C(=O)[C@@H](NC(=O)N2CC3(CC(N4CCC(c5cnc(N6CCc7[nH]c8nnc(-c9ccccc9O)cc8c7[C@H]6C)nc5)CC4)C3)C2)C(C)(C)C)cc1 [I-169]	SMARCA2 (Homo sapiens, UniProt P51531)	Selectivity in MV411	B (B (>100-500 fold))
